B1: COX4I1 (parent)
chain: VAHVKHLSASQKALKEKEKASWSS

- Variants of: B1
- Test: protein stability index of a GFP-peptide fusion (GPS, HEK-293T) (PSI 1-6); higher = more stable;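 note: lentivirally expressed fusions sorted by FACS into six bins by GFP to DsRed ratio, PSI derived from sequencing read proportions per bin multiplied by bin number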
- Measurement Parameters: c terminus: a fixed tail appended
Entries and their protein stability index
Reply with just the number.

QUERY: // query protein stability index value for entry A20N
RESULT: 3.05

QUERY: Same thing, different variant: E16N
RESULT: 3.05

QUERY: Same thing, different variant: K17V
RESULT: 2.95

QUERY: Same thing, different variant: Q11K
RESULT: 2.99

QUERY: Same thing, different variant: V1C
RESULT: 3.06

QUERY: Same thing, different variant: H6T
RESULT: 2.97

QUERY: Same thing, different variant: S8M
RESULT: 2.92

QUERY: Same thing, different variant: E18N
RESULT: 2.98

QUERY: Same thing, different variant: K12F
RESULT: 2.92

QUERY: Same thing, different variant: S8L
RESULT: 3.02
